Values compiled from ChEMBL document CHEMBL5143597.

Assay: Clearance in C57BL/6 mouse at 3 mg/kg, iv or 10 mg/kg, po and measured up to 24 hrs by LC-MS/MS analysis
Format: ADME, organism-based
Details: in vivo
Listed next: entries and their corresponding clearance.

| MOLECULE | clearance / mL/min/kg |
| --- | --- |
| O=C(Nc1ccc(C2CCC3(CC2)CC(C(=O)O)C3)cc1)c1nnc(Nc2ccc(F)c(F)c2)o1 (stereo not drawn) | 34 |
| O=C(O)CC1CCC2(CC1)CCN(c1ccc(NC(=O)c3nnc(Nc4ccc(F)c(F)c4)o3)cn1)CC2 | 60 |
| O=C(O)CC1CCC2(CC1)CCC(c1ccc(NC(=O)c3nnc(Nc4ccc(F)c(F)c4)o3)cn1)CC2 (stereo not drawn) | 21 |
